Values from ChEMBL document CHEMBL1122959

- tested.on: 3-hydroxy-3-methylglutaryl-coenzyme A reductase (Rattus norvegicus)
- Sequence (P51639 whole entry): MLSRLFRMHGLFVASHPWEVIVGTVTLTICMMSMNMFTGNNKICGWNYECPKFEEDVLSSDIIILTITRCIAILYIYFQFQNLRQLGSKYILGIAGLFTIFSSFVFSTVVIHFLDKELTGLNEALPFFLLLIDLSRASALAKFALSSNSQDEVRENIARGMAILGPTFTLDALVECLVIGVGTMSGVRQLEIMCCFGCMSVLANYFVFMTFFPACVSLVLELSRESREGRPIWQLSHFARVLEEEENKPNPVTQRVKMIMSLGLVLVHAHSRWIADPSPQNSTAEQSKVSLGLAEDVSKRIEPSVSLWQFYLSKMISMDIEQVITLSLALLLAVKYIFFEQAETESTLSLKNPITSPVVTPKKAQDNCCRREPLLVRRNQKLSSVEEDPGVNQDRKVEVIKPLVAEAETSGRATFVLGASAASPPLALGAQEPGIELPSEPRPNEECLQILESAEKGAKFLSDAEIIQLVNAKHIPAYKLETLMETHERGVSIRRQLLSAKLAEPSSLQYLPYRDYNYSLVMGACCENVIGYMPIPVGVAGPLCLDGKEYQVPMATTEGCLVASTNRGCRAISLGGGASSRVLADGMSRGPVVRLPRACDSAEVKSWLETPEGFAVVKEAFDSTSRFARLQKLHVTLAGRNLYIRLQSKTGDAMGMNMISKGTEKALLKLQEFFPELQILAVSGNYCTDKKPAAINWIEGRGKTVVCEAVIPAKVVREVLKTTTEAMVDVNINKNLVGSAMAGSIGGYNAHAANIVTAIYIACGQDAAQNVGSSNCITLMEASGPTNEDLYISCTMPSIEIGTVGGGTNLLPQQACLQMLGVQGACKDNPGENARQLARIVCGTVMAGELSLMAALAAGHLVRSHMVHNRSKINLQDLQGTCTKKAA
IC50 strictly under 2 µM means condition met; at 2 µM or over means condition not met.

>>> class_name("C[C@]1(O)CC(=O)O[C@H](/C=C/c2ccc(Cl)cc2Cl)C1")
"condition not met"
>>> class_name("O=C1C[C@H](O)C[C@@H](C=C2c3ccccc3-c3ccccc32)O1")
"condition met"
>>> class_name("O=C1C[C@H](O)CC(CCc2cccc3ccccc23)O1 (stereo partly drawn)")
"condition not met"
>>> class_name("O=C1C[C@H](O)C[C@@H](C=C2c3ccccc3C=Cc3ccccc32)O1")
"condition met"
>>> class_name("C[C@]1(O)CC(=O)O[C@H](CCc2ccc(Cl)cc2Cl)C1")
"condition not met"
>>> class_name("O=C1C[C@H](O)C[C@@H](/C=C/c2cccc3ccc4ccccc4c23)O1")
"condition met"
>>> class_name("O=C1C[C@H](O)C[C@@H](CC[C@@H]2CCC[C@@H]3CCCC[C@@H]32)O1")
"condition not met"
>>> class_name("CC[C@H](C)C(=O)O[C@H]1CCC=C2C=C[C@H](C)[C@H](CC[C@@H]3C[C@@H](O)CC(=O)O3)[C@H]21")
"condition met"
